- assayedSystem: T1, IL-2R on human primary T cells (human, UniProt P01589 22-272; P14784 27-551; P31785 23-369)
- T1 sequence (looked up) 1: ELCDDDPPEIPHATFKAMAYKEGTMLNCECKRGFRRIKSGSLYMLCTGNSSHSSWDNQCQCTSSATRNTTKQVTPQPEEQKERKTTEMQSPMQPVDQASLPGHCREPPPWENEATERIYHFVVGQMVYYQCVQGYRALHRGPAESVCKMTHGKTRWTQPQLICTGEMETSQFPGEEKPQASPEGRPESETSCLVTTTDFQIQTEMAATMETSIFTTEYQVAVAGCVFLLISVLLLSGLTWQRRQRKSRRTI
- T1 sequence (looked up) 2: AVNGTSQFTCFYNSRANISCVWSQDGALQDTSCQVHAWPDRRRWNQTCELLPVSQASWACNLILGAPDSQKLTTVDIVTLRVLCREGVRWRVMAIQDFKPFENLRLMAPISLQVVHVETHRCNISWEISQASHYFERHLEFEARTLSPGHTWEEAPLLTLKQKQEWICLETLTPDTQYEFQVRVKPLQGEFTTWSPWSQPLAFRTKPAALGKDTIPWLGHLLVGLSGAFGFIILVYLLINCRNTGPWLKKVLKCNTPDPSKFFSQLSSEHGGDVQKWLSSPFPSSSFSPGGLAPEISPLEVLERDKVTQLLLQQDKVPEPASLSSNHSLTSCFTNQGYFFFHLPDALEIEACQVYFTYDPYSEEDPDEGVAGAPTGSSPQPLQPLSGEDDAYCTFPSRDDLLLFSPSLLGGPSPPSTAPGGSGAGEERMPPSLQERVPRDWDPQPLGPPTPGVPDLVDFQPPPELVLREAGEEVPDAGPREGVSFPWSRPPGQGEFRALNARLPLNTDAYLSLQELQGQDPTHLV
- T1 sequence (looked up) 3: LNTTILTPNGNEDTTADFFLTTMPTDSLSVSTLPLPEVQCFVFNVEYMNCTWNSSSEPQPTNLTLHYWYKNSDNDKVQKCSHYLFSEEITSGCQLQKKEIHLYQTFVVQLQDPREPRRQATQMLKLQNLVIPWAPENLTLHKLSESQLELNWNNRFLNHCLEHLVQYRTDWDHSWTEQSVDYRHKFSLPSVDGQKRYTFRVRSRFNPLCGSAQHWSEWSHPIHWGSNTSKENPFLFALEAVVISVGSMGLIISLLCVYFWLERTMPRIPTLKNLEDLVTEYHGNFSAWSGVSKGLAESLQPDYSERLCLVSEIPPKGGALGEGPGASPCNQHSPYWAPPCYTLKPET
- assayOverview: cell-based or functional assay
Strictly below 6 nM in Treg EC50 (nM), STAT5 phosphorylation: satisfied. Otherwise: not satisfied.

binder	class
SEQ ID NO 26 (ligand) APTSSSTKKTQLQLEHLLLDLQMILNGINNHKNPRLTRMLTFKFYMPKKATELKHLQCLEEELKPLEEVLRLAPSKNFHLRPRDLISDINVIVLELKGSETTFMCEYADETATIVEFLNRWITFSQSIISTLT	satisfied
SEQ ID NO 14 (ligand) APTSSSTKKTQLQLEHLLLDLQMILNGINNHKNPRLTRMLTFKFYMPKKATELKHLQCLEEELKPLEEVLNLAPSKNFHLRPRDLISNINVIVLELKGSETTFMCEYADETATIVEFLNRWITFSQSIISTLT	satisfied
SEQ ID NO 11 (ligand) APTSSSTKKTQLQLEHLRLDLEMILNGINNYKNPKLTRMLTFKFYMPKKATELKHLQCLEEELKPLEEVLNLAQSKNFHLRPRDLISNINVIVLELKGSETTFMCEYADETATIVEFLNRWITFSTSIISTLT	satisfied
SEQ ID NO 32 (ligand) APTSSSTKKTQLQLEHLLLDLQMILNGINNYKNPKLTRMLTFKFYMPKKATELKHLQCLEEELKPLEEALNLAQSKNFHLRPRDLISDINVIVLELKGSETTFMCEYADETATIVEFLNRWITFSQSIISTLT	not satisfied
SEQ ID NO 37 (ligand) APTSSSTKKTQLQLEHLLLDLQMILNGINNHKNPKLTRMLTFKFYMPKKATELKHLQCLEEELKPLEEALRLAPSKNFHLRPRDLISDINVIVLELKGSETTFMCEYADETATIVEFLNRWITFSQSIISTLT	satisfied
SEQ ID NO 35 (ligand) APTSSSTKKTQLQLEHLLLDLQMILNGINNHKNPKLTRMLTFKFYMPKKATELKHLQCLEEELKPLEEVLNLAPSKNFHLRPRDLISDINVIVLELKGSETTFMCEYADETATIVEFLNRWITFSQSIISTLT	not satisfied

The origin of these recorded values is patent US20230303649A1.
